# Tested on: human orexin-2 (hOX2) receptors (Homo sapiens, UniProt O43614)
# Construct: expressed in transfected cells
# Sequence (O43614 whole entry): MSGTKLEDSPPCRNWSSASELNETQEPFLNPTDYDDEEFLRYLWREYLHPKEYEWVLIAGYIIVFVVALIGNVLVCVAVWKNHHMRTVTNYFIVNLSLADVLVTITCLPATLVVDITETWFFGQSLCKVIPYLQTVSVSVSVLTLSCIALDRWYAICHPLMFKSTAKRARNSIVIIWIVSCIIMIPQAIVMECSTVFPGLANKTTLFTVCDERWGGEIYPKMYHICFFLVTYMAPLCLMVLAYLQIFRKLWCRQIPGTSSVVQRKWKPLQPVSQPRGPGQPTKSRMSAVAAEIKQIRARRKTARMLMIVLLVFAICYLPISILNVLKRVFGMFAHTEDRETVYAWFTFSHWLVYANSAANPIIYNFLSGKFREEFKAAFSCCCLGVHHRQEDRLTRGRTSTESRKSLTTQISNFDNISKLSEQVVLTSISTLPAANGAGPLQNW
# Assay text: Intracellular Ca2+ mobilization assay (FLIPR), CHO(dHFr-) cells expressing hOX2
# Type: cell-based
# Condition notes: antagonism of orexin-A at EC80; Kb=IC50/(1+[A]/EC50); CHO(dHFr-)-OX2R cells
Property label: Kb

Would you please look over these solved cases?
Molecule | Reported measurement
CNC(=O)C(c1ccccc1)N1CCc2ncccc2C1CCc1ccc(F)cc1 (single isomer, unassigned) | 0.0601 µM
CNC(=O)C(c1ccccc1)N1CCc2sc(C)cc2C1CCc1ccc(OC)cc1 (single isomer, unassigned) [Example 9] | 0.0566 µM
CNC(=O)C(c1ccccc1)N1CCc2ccsc2C1CCc1ccc(C(F)(F)F)cc1 (single isomer, unassigned) | 0.0148 µM

# input for lookup
Asked: Given the molecule CNC(=O)C(c1ccccc1)N1CCc2sc(C)cc2C1CCc1ccc(OC)cc1 (single isomer, unassigned) [Example 8] , what is its reported Kb?
Given back: 0.0075 µM
